# Assayed System: furin, P09958;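 note: purified furin at 1:10 enzyme:substrate in 50 mM HEPES pH 7.5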
# Sequence (P09958 whole entry): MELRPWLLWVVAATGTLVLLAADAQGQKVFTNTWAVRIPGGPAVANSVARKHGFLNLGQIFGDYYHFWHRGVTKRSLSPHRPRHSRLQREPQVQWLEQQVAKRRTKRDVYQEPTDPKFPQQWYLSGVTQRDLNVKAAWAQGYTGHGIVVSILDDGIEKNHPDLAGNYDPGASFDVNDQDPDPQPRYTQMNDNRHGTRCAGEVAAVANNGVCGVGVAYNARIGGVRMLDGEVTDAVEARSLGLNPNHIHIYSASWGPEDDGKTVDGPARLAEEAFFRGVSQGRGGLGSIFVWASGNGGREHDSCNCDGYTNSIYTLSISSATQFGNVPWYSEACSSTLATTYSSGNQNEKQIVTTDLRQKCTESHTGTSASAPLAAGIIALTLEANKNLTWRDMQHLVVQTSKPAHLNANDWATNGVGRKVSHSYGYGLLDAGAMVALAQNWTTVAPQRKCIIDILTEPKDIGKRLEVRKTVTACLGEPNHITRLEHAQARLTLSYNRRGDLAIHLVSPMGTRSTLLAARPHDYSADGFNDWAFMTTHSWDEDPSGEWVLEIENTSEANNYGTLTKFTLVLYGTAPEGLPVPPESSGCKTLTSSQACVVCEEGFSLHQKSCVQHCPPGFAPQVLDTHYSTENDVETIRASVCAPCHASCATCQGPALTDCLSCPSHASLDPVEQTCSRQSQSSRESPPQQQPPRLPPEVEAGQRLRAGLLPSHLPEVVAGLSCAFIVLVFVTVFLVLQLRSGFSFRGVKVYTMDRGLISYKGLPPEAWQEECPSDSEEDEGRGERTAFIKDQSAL
# Experimental Details: furin cleavage Z-score vs untreated control; higher = more cleavage, active = 3.5 or more, inactive = 1 or less, 8 variable residues between constant flanks
# Recorded Conditions: 7.5 min
The list shows a part of the results. No count for the full screen is at hand.
Each entry below carries its reported furin cleavage Z-score.
Write the value as a bare number.

Find the measured furin cleavage Z-score of CAVVCRSMSYAGNASASA [HC90] and report it.
1.85

Find the measured furin cleavage Z-score of CAFRARFRRLAGNASASA [FS-526] and report it.
10.4

Find the measured furin cleavage Z-score of CARKKKGKADAGNASASA [FS-2690] and report it.
0.358

Find the measured furin cleavage Z-score of CARSRRWKVKAGNASASA [FS-3211] and report it.
1.85

Find the measured furin cleavage Z-score of CARSRRCLRDAGNASASA [FS-2607] and report it.
4.81

Find the measured furin cleavage Z-score of CARKKREIRSAGNASASA [FS-2962] and report it.
14.3

Find the measured furin cleavage Z-score of CARWRRSAPGAGNASASA [FS-2111] and report it.
8.14

Find the measured furin cleavage Z-score of CARWRRVAVGAGNASASA [FS-2846] and report it.
0.992

Find the measured furin cleavage Z-score of CATTPYSGSWAGNASASA [HC57] and report it.
-0.402

Find the measured furin cleavage Z-score of CALTVPASAYAGNASASA [HC253] and report it.
0.273

Find the measured furin cleavage Z-score of CATNSRGENCAGNASASA [HC1504] and report it.
0.0549

Find the measured furin cleavage Z-score of CARSRRCTCFAGNASASA [FS-2187] and report it.
-0.747
